SYSTEM_UNDER_TEST: Recombinant human renin (Homo sapiens)
Sequence (P00797 67-406): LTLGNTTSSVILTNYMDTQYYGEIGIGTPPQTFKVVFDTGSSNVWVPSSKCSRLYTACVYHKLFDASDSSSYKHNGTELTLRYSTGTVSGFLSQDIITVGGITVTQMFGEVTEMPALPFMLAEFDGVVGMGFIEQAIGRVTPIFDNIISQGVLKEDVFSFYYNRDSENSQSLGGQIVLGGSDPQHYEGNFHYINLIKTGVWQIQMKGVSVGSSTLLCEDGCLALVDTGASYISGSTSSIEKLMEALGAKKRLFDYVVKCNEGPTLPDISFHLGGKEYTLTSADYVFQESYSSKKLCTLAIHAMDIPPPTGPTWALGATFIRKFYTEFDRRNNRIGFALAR
EXPERIMENT: Inhibitory activity against human renin (fluorogenic peptide substrate)
Format: biochemical
CONDITION_DETAILS: 50% inhibitory concentration (IC50) against human renin, 37° C. for 1 hour
pIC50: −log10 of the molar value.
OBSERVABLE: pIC50

# example entries with known answers
CCCCCc1cc([C@@H](C)N(C(=O)[C@H]2CNC[C@@H](C)O2)C2CC2)sc1-c1ccccc1-c1nn[nH]n1 | 8.22
COC(=O)NCCCc1cc([C@@H](C)N(C(=O)[C@H]2CNCCO2)C2CC2)ncc1OC | 8.27
COC[C@H]1CO[C@@H](C(=O)N(C2CC2)[C@@H](C)c2cc(OC(C)C)n(CCCNC(=O)OC)n2)CN1 | 8.64
COC(=O)NCCCn1cc([C@@H](C)N(C(=O)[C@H]2CNC[C@@H](C)O2)C2CC2)nc1-c1ccc(F)cc1 | 9.22
COC(=O)NCCCc1cc([C@@H](C)N(C(=O)[C@H]2CN[C@@H](C)CO2)C2CC2)cc(C2CC2)n1 | 8.12

(a) COC(=O)NCCCn1nc([C@@H](C)N(C(=O)[C@H]2CN[C@@H](CO)CO2)C2CC2)c2ccc(C)nc21
(b) COC(=O)NCCCn1cc([C@H](C)N(C(=O)[C@H]2CN[C@@H](C)CO2)C2CC2)nc1C1CCCCC1
Q: Between a and b , which one has the lower reported pIC50 value? Give the chosen item's label as your response.
Result: a
